These data points were gathered from patent US9815851B2.

- tested-on: RORγ (UniProt P51449)
- protocol-notes: RORγ Gal4 Reporter Gene Assay in 293T cells (firefly and renilla luciferase)
- Format: cell-based, human
measure: pIC50 (FF)

Prompt: Field request: pIC50 (FF) | item: Cc1c(C(=O)NCC2CCOCC2)cc(-c2ccc(S(=O)(=O)NC(C)(C)C)c(C(C)(C)C)c2)n1CC1CCCCC1 [1/10]
Completion: 6.3/7.5/7.5

Prompt: Field request: pIC50 (FF) | item: Cc1c(C(=O)NCC(C)(C)O)cc(-c2cc(C(C)(C)C)cc(C3(C)CC3)c2)n1CC1CCCCC1 [1/87]
Completion: 6.5/7.2/7.2

Prompt: Field request: pIC50 (FF) | item: Cc1c(C(=O)NCCCCC[S+](C)[O-])cc(-c2cc(C(C)(C)C)c3c(c2)C2(CCO3)CC2)n1CC1CCCCC1 (stereo not shown) [17/79]
Completion: 5.8/6.4/6.3

Prompt: Field request: pIC50 (FF) | item: Cc1c(C(=O)N[C@H]2C[C@H](C(=O)O)C2)cc(-c2cc(C(C)(C)C)nc(C(C)(C)C)c2)n1CC1CCCCC1 [17/262]
Completion: 6.2/7.6/7.8

Prompt: Field request: pIC50 (FF) | item: COC(C)(C)c1cc(-c2cc(C(=O)NC3CCOCC3)c(C)n2CC2CCCCC2)cc2c1OCCC21CC1 [17/325]
Completion: 5.6/7.1/7.2

Prompt: Field request: pIC50 (FF) | item: COC(C)(C)c1cc(C(=O)NC(C)(C)C)cc(-c2cc(C(=O)NC3CCOCC3)c(C)n2CC2CCCCC2)c1 [17/324]
Completion: 5.5/6.8/6.8

Prompt: Field request: pIC50 (FF) | item: Cc1c(C(=O)NC2CCOCC2)cc(-c2ccc(S(=O)(=O)NC(C)(C)C(F)(F)F)c(C(F)(F)F)c2)n1CC1CCCCC1 [17/160]
Completion: 6.7/7.8/8.0
